# Test target: Mineralocorticoid receptor (Homo sapiens, UniProt P08235)
# Sequence (P08235 whole entry): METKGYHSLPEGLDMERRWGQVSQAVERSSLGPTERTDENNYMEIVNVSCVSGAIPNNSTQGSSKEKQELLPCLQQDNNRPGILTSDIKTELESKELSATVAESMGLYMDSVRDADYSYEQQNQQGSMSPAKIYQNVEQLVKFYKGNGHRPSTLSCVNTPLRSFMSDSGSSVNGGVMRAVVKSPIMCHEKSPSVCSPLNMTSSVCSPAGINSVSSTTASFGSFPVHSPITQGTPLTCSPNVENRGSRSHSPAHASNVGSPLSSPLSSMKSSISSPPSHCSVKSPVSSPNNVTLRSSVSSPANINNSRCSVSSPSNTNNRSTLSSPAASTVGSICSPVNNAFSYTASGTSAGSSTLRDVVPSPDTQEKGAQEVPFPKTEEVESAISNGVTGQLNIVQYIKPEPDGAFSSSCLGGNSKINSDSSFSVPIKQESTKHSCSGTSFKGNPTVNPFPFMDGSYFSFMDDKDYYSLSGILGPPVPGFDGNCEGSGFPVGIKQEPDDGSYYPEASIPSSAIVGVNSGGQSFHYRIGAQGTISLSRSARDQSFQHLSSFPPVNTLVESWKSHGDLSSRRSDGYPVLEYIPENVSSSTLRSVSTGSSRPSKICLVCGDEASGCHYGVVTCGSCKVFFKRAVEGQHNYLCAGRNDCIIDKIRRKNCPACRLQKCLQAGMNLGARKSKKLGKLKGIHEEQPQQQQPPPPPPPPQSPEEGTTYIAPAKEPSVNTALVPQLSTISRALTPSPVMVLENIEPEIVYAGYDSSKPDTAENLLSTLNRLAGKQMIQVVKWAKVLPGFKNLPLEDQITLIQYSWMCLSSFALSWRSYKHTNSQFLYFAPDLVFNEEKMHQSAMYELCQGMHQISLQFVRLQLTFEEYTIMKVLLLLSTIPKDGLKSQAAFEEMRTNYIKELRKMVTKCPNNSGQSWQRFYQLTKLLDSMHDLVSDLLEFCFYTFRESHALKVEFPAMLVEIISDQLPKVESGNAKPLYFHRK
# Assay comment: Inhibition of 10e-9 M aldosterone activity in CV-1 cells expressing mineralocorticoid receptor
pIC50: −log10 of the molar value.
Outcome measure: pIC50

| Molecule | pIC50 |
| --- | --- |
| C[C@@H](O)C1CC[C@H]2[C@@H]3CCC4=CC(=O)CCC4(C)[C@H]3CCC12C(=O)C=[N+]=[N-] (some centres not stated) | 6.05 |
| CC(=O)C1CC[C@H]2[C@@H]3CCC4=CC(=O)CCC4(C)[C@H]3CCC12C(=O)[CH-][N+]#N (some centres not stated) | 6.15 |
